- Test system: 616215-338-R-J1-PDC spheroids with HUVEC/MSC, viability
- PROTOCOL_DESCRIPTION: Anticancer human tumor 616215-338-R-J1-PDC patient-derived colon adenocarcinoma cell line growth inhibition [PI3K]
- SETTINGS: second compound 1 µM; first compound 0.1 µM; active compounds read low
Hi there, I'd appreciate the recorded viability, T/C for every entry that follows.
Kindly answer with a numeric value in %, unit omitted.

// fetch viability, T/C given entry CC(C)NCC(C(=O)N1CCN(c2ncnc3c2C(C)CC3O)CC1)c1ccc(Cl)cc1 (stereo not given) + COc1c(OCCCN2CCOCC2)ccc2c3n(c(=NC(=O)c4cnc(N)nc4)nc12)CCN3
21.8

// fetch viability, T/C given entry C=CC(=O)N1CCN(c2nc(=O)n(-c3c(C)ccnc3C(C)C)c3nc(-c4c(O)cccc4F)c(F)cc23)C(C)C1 (stereo not given) + Cc1nc(NC(=O)N2CCCC2C(N)=O)sc1-c1ccnc(C(C)(C)C(F)(F)F)c1
93.3

// fetch viability, T/C given entry C#Cc1c(F)ccc2cc(O)cc(-c3ncc4c(N5CC6CCC(C5)N6)nc(OCC56CCCN5CC(F)C6)nc4c3F)c12 (stereo not given) + COc1c(OCCCN2CCOCC2)ccc2c3n(c(=NC(=O)c4cnc(N)nc4)nc12)CCN3
27.1

// fetch viability, T/C given entry Cn1ncc(Cl)c1-c1cc(C(=O)NC(CN)Cc2cccc(F)c2)sc1Cl (stereo not given) + CC(Nc1ccc2c(c1)OCCn1cc(N3C(=O)OCC3C(F)F)nc1-2)C(N)=O
101

// fetch viability, T/C given entry CNC(=O)c1ccc(N2C(=S)N(c3ccc(C#N)c(C(F)(F)F)c3)C(=O)C2(C)C)cc1F + COc1c(OCCCN2CCOCC2)ccc2c3n(c(=NC(=O)c4cnc(N)nc4)nc12)CCN3
22.5

###

- Tested on: 616215-338-R-J1-PDC spheroids with HUVEC/MSC, viability
- PROTOCOL_DESCRIPTION: Anticancer human tumor 616215-338-R-J1-PDC cell line growth inhibition [PI3K];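 note: spheroids exposed to agents for seven days before the viability read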
- SETTINGS: second compound 1 µM; first compound 0.1 µM; active compounds read low
Could you mark each record yes if its viability, T/C falls strictly under 90%, and no if it equals or exceeds it?

Determine whether this compound shows viability, T/C lower than 90% (ties excluded): C=CC(=O)N1CCN(c2nc(=O)n(-c3c(C)ccnc3C(C)C)c3nc(-c4c(O)cccc4F)c(F)cc23)C(C)C1 (stereo unspecified) + CC(Nc1ncnc2nc[nH]c12)c1cc2cccc(Cl)c2c(=O)n1-c1ccccc1
no

Determine whether this compound shows viability, T/C lower than 90% (ties excluded): CC(C)n1nc(-c2ccc3oc(N)nc3c2)c2c(N)ncnc21 + CC(Nc1ncnc2nc[nH]c12)c1cc2cccc(Cl)c2c(=O)n1-c1ccccc1
yes

Determine whether this compound shows viability, T/C lower than 90% (ties excluded): CC1(C)CCC(Nc2ncc(C(F)(F)F)c(-c3c[nH]c4c(P(C)(C)=O)c(C#N)ccc34)n2)CN1 (stereo unspecified) + CC(Nc1ccc2c(c1)OCCn1cc(N3C(=O)OCC3C(F)F)nc1-2)C(N)=O
yes

Determine whether this compound shows viability, T/C lower than 90% (ties excluded): CCN1CCN(Cc2ccc(Nc3ncc(F)c(-c4cc(F)c5nc(C)n(C(C)C)c5c4)n3)nc2)CC1 + CC(Nc1ccc2c(c1)OCCn1cc(N3C(=O)OCC3C(F)F)nc1-2)C(N)=O
yes

Determine whether this compound shows viability, T/C lower than 90% (ties excluded): CC(C)n1nc(-c2ccc3oc(N)nc3c2)c2c(N)ncnc21 + CC(Nc1ccc2c(c1)OCCn1cc(N3C(=O)OCC3C(F)F)nc1-2)C(N)=O
yes

Determine whether this compound shows viability, T/C lower than 90% (ties excluded): CNC(=O)c1ccc(N2C(=S)N(c3ccc(C#N)c(C(F)(F)F)c3)C(=O)C2(C)C)cc1F + Cc1nc(NC(=O)N2CCCC2C(N)=O)sc1-c1ccnc(C(C)(C)C(F)(F)F)c1
no

Determine whether this compound shows viability, T/C lower than 90% (ties excluded): CC1(C)CCC(CN2CCN(c3ccc(C(=O)NS(=O)(=O)c4ccc(NCC5CCOCC5)c([N+](=O)[O-])c4)c(Oc4cnc5[nH]ccc5c4)c3)CC2)=C(c2ccc(Cl)cc2)C1 + CC(Nc1ncnc2nc[nH]c12)c1cc2cccc(Cl)c2c(=O)n1-c1ccccc1
no

Determine whether this compound shows viability, T/C lower than 90% (ties excluded): CC1(C)CCC(Nc2ncc(C(F)(F)F)c(-c3c[nH]c4c(P(C)(C)=O)c(C#N)ccc34)n2)CN1 (stereo unspecified) + Cc1nc(NC(=O)N2CCCC2C(N)=O)sc1-c1ccnc(C(C)(C)C(F)(F)F)c1
yes

Determine whether this compound shows viability, T/C lower than 90% (ties excluded): Cn1ncnc1[C@H]1c2n[nH]c(=O)c3cc(F)cc(c23)N[C@@H]1c1ccc(F)cc1 + CC(Nc1ccc2c(c1)OCCn1cc(N3C(=O)OCC3C(F)F)nc1-2)C(N)=O
yes

Determine whether this compound shows viability, T/C lower than 90% (ties excluded): CCCS(=O)(=O)Nc1ccc(F)c(C(=O)c2c[nH]c3ncc(-c4ccc(Cl)cc4)cc23)c1F + COc1c(OCCCN2CCOCC2)ccc2c3n(c(=NC(=O)c4cnc(N)nc4)nc12)CCN3
yes

Determine whether this compound shows viability, T/C lower than 90% (ties excluded): C#Cc1c(F)ccc2cc(O)cc(-c3ncc4c(N5CC6CCC(C5)N6)nc(OCC56CCCN5CC(F)C6)nc4c3F)c12 (stereo unspecified) + CC(Nc1ncnc2nc[nH]c12)c1cc2cccc(Cl)c2c(=O)n1-c1ccccc1
no

Determine whether this compound shows viability, T/C lower than 90% (ties excluded): CCN1CCN(Cc2ccc(Nc3ncc(F)c(-c4cc(F)c5nc(C)n(C(C)C)c5c4)n3)nc2)CC1 + Cc1nc(NC(=O)N2CCCC2C(N)=O)sc1-c1ccnc(C(C)(C)C(F)(F)F)c1
no

Determine whether this compound shows viability, T/C lower than 90% (ties excluded): C[C@@H](NC(=O)c1ncnc(N)c1Cl)c1ncc(C(=O)Nc2cc(C(F)(F)F)c(Cl)cn2)s1 + CC(Nc1ccc2c(c1)OCCn1cc(N3C(=O)OCC3C(F)F)nc1-2)C(N)=O
no

Determine whether this compound shows viability, T/C lower than 90% (ties excluded): CC(C)NCC(C(=O)N1CCN(c2ncnc3c2C(C)CC3O)CC1)c1ccc(Cl)cc1 (stereo unspecified) + CC(Nc1ccc2c(c1)OCCn1cc(N3C(=O)OCC3C(F)F)nc1-2)C(N)=O
no

Determine whether this compound shows viability, T/C lower than 90% (ties excluded): CC(=O)c1c(C)c2cnc(Nc3ccc(N4CCNCC4)cn3)nc2n(C2CCCC2)c1=O + CC(Nc1ncnc2nc[nH]c12)c1cc2cccc(Cl)c2c(=O)n1-c1ccccc1
no

Determine whether this compound shows viability, T/C lower than 90% (ties excluded): C#Cc1c(F)ccc2cc(O)cc(-c3ncc4c(N5CC6CCC(C5)N6)nc(OCC56CCCN5CC(F)C6)nc4c3F)c12 (stereo unspecified) + CC(Nc1ccc2c(c1)OCCn1cc(N3C(=O)OCC3C(F)F)nc1-2)C(N)=O
yes

Determine whether this compound shows viability, T/C lower than 90% (ties excluded): Cn1nccc1Nc1nccc(-c2ccn(C(CO)c3ccc(Cl)c(F)c3)c(=O)c2)n1 (stereo unspecified) + Cc1nc(NC(=O)N2CCCC2C(N)=O)sc1-c1ccnc(C(C)(C)C(F)(F)F)c1
no

Determine whether this compound shows viability, T/C lower than 90% (ties excluded): CCN1CCN(Cc2ccc(Nc3ncc(F)c(-c4cc(F)c5nc(C)n(C(C)C)c5c4)n3)nc2)CC1 + COc1c(OCCCN2CCOCC2)ccc2c3n(c(=NC(=O)c4cnc(N)nc4)nc12)CCN3
yes

Values from PubChem BioAssay AID1963978
